System: Plasmodium berghei
PROTOCOL_NOTES: Screen against P. berghei liver stage (PbLuc), transformed with Luciferase, at 10uM
Type: functional, HepG2
EXPERIMENTAL_CONDITIONS: tested at 10 uM
Out of some 69,000 compounds screened, about 8,600 (12%) showed an effect of 50% or more. Many of the other results were omitted from the sample, so strong results are more common in it than they were.
Below, each of the molecules is paired with its reported INHIBITION value.

{"columns": ["MOLECULE", "UNIT_OF_MEASURE", "INHIBITION"],
 "data": [
  ["Cn1cc(S(=O)(=O)Nc2c(F)cccc2N2CCCC2)cn1", "%", -11.9],
  ["CCN1CCC2(CN(C(C)=O)CC23CCN(CC2CC2)CC3)C1=O (stereo not given)", "%", -23.3],
  ["Cc1nc2cc(O)nn2c(C)c1CCC(=O)NCCc1nccn1C", "%", 30.6],
  ["O=C(NCCC1CCN(CC(F)(F)F)CC1)C1CCCOC1 (stereo not given)", "%", -10.3],
  ["Cc1nccc(NCc2cncc3c2CCN(CCN(C)C)C3)n1", "%", 29.4]
]}

Data origin, for the record: ChEMBL document CHEMBL4513216
